Each entry below carries its recorded pIC50.
molecular target: human CYP2D6 (Homo sapiens, UniProt P10635); test: biochemical; conditions: CYP2D6 IC50
Sequence (P10635 whole entry): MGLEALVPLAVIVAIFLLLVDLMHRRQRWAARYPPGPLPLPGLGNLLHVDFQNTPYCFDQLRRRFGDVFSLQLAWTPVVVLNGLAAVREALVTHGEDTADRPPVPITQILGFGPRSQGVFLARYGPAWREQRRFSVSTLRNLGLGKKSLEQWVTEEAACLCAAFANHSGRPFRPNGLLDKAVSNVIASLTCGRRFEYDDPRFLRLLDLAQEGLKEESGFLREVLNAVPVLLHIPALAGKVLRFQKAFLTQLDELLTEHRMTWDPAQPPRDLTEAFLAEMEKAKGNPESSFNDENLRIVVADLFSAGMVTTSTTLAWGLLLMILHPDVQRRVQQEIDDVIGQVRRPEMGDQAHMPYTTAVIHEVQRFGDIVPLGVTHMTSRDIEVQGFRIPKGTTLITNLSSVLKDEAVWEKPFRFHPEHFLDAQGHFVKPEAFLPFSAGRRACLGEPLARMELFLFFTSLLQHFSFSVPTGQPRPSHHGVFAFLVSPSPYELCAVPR
pIC50: −log10 of the molar value. Counter-ions that a name gives are not always drawn.
Parameter measured: pIC50

C[C@@H](O[C@H]1OCCN(Cc2n[nH]c(=O)[nH]2)[C@H]1c1ccc(F)cc1)c1cc(C(F)(F)F)cc(C(F)(F)F)c1 [Aprepitant]	4.60
c1ccc2c(c1)-c1cccc3c1c-2cc1ccccc13 [Benzo(b)fluoranthene]	4.52
CCCC[N+](CCCC)(CCCC)CCCC [Tetrabutylammonium bromide]	8.00
Cc1cc(C)c(N)cc1C [2,4,5-Trimethylaniline]	4.42
CN1CCC(=C2c3ccccc3CCc3sccc32)CC1 [Pizotifen]	6.02
CCCCC(CC)CNCC(CC)CCCC (stereo not drawn) [2,2'-Diethylhexylamine]	6.51
c1cc2ccc3cccc4ccc(c1)c2c34 [Pyrene]	4.33
CC(CC1c2ccccc2CCc2ccccc21)CN(C)C (stereo not drawn) [Butriptyline]	6.01
CCc1cccc(N(C)C(N)=Nc2cccc3ccccc23)c1 [Aptiganel hydrochloride]	6.85

###

target: human CYP2D6 (Homo sapiens, UniProt P10635)
Parameter measured: CYP2D6 AC50 (half-maximal activity concentration)

NNS(=O)(=O)c1ccc(Oc2ccc(S(=O)(=O)NN)cc2)cc1 [4,4'-Oxybis(benzenesulfonhydrazide)]	Inconclusive inhibitor
CCCOC(=O)c1ccccc1C(=O)OCCC [Dipropyl phthalate]	Inactive
CC(C)(C)c1ccc(OC(=O)c2ccccc2O)cc1 [4-tert-Butylphenyl salicylate]	Inactive
CC(=O)c1ccc2ccccc2c1	Inconclusive inhibitor
CC(=O)OCC(=O)[C@H]1CC[C@H]2[C@@H]3CCC4=CC(=O)CC[C@]4(C)[C@H]3CC[C@]12C [Deoxycorticosterone acetate]	Inconclusive inhibitor
O=P(c1ccccc1)(c1ccccc1)c1ccccc1 [Triphenylphosphine oxide]	Inactive
Oc1c(Cl)cc(Cl)c(Cl)c1Cl	Inactive
Clc1cnc(Oc2ccc(Oc3ncc(Cl)cc3Cl)cc2)c(Cl)c1	Inactive
N#Cc1cc(I)c(O)c(I)c1	Inactive
O=C(O)c1ccccc1C(c1ccc(O)cc1)c1ccc(O)cc1	Inactive
CCCCCCCCCCCCN1CCCC1=O	Inactive

###

molecular target: human CYP2D6 (Homo sapiens); experiment: biochemical; settings: CYP2D6 IC50 (half-maximal inhibitory concentration)
pIC50: −log10 of the molar value. Where a name gives a salt, the structure may show the parent alone.
Parameter measured: pIC50

C=CCOC(=O)C(C)(C)OC(=O)c1cc(-n2c(=O)cc(C(F)(F)F)n(C)c2=O)ccc1Cl	4.57
CC(C)[N+](C)(CCC(C(N)=O)(c1ccccc1)c1ccccc1)C(C)C [Isopropamide]	6.15
N#CC(CCc1ccc(Cl)cc1)(Cn1cncn1)c1ccccc1 (centres unmarked)	4.41
Clc1ccc(C2(Cn3cncn3)OCCO2)c(Cl)c1	4.18
O=S(=O)(c1ccc(Cl)cc1)c1cc(Cl)c(Cl)cc1Cl	4.31
Clc1ccc(COC(Cn2ccnc2)c2ccc(Cl)cc2Cl)cc1 (centres unmarked) [Econazole nitrate]	6.40
C=CC(=O)OCC(CO)(COC(=O)C=C)COC(=O)C=C [Pentaerythritol triacrylate]	4.20
CCCCN1CCCC[C@H]1C(=O)Nc1c(C)cccc1C [Levobupivacaine hydrochloride]	6.24
c1ccc2c(c1)Nc1ccccc1S2	4.51
COc1ccc(CN(CCN(C)C)c2ccccn2)cc1 [Pyrilamine maleate]	6.74
COc1ccc(C(O)(c2cncnc2)C2CC2)cc1 (centres unmarked)	4.33

###

The reader will find CYP2D6 AC50 (half-maximal activity concentration) measurements below, all made with human CYP2D6 (Homo sapiens, UniProt P10635).
Parameter measured: CYP2D6 AC50 (half-maximal activity concentration)

Cc1cc2c(cc1S(N)(=O)=O)S(=O)(=O)CCC2 [Meticrane]	Inactive
CCC(=O)OCCOc1ccccc1 [Phenoxyethyl propionate]	Inactive
Cc1ccc(C(C)OC(=O)[C@]2(C)CC[C@H](C(=O)O)C2(C)C)cc1.OCCNCCO (stereo partly drawn) [Tocanfil]	Inactive
O=C(c1ccccc1)c1ccc(Cl)cc1 [4-Chlorobenzophenone]	Inconclusive inhibitor
Nc1cc(Cl)cc(Cl)c1 [3,5-Dichloroaniline]	Inactive
O=[N+]([O-])C(Br)(CO)CO [Bronopol]	Inactive
CC(C)OC(=O)c1ccccc1C(=O)OC(C)C [Diisopropyl phthalate]	Inconclusive inhibitor
C=C(C)C(=O)OCCCCCCOC(=O)C(=C)C [1,6-Hexanediol dimethacrylate]	Inactive
CC(=O)[C@H]1CC[C@H]2[C@@H]3CC[C@H]4C[C@](C)(O)CC[C@]4(C)[C@H]3CC[C@]12C [Ganaxolone]	Inactive
Oc1cc(Cl)ccc1Cl [2,5-Dichlorophenol]	Inactive
OCC(CBr)(CBr)CBr [3-Bromo-2,2-bis(bromomethyl)propanol]	Inactive
O=C(NC(=O)c1c(F)cccc1F)Nc1cc(Cl)c(Oc2ncc(C(F)(F)F)cc2Cl)c(Cl)c1 [Chlorfluazuron]	Inactive

###

target: human CYP2C19 (Homo sapiens, UniProt P33261); assay: biochemical; settings: CYP2C19 IC50 (half-maximal inhibitory concentration)
Sequence (P33261 whole entry): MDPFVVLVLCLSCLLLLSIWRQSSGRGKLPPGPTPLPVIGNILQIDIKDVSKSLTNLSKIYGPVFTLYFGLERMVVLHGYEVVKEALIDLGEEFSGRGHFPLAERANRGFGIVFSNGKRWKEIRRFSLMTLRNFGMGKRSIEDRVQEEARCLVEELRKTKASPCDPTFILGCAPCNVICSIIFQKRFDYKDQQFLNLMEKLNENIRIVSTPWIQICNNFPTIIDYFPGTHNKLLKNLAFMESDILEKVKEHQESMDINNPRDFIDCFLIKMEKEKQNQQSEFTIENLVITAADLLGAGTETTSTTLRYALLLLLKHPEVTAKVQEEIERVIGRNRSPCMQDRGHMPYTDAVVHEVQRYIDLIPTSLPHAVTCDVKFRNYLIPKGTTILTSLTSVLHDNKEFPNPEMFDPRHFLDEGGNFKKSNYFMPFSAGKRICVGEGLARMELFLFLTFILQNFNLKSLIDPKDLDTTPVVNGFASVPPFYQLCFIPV
Each entry below carries its recorded log10 of IC50.
Parameter measured: log10 of IC50 (log10 of the value in nM)

CN(C)CCCSc1ccccc1NC(=O)/C=C/c1ccccc1	4.47
OC(Cc1ccccc1Cl)(Cn1nc[nH]c1=S)C1(Cl)CC1 (centres unmarked)	3.41
CCN(Cc1c(F)cccc1Cl)c1c([N+](=O)[O-])cc(C(F)(F)F)cc1[N+](=O)[O-]	3.35
CC(C)(C)C(=O)C(Oc1ccc(Cl)cc1)n1ccnc1 (centres unmarked)	3.19
O=S(=O)(Oc1ccc(Cl)cc1Cl)c1ccccc1 [2,4-Dichlorophenyl benzenesulfonate]	2.69
CCC(C)n1ncn(-c2ccc(N3CCN(c4ccc(OCC5COC(Cn6cncn6)(c6ccc(Cl)cc6Cl)O5)cc4)CC3)cc2)c1=O (centres unmarked)	3.92
C[C@]12Cc3c[nH]nc3C[C@@H]1CC[C@@H]1[C@@H]2CC[C@@]2(C)[C@H]1CC[C@]2(C)O	2.74
CCOP(=S)(OCC)SC(CCl)N1C(=O)c2ccccc2C1=O (centres unmarked)	2.58

###

The reader will find AC50 measurements below, all made with CYP3A4 (Homo sapiens, UniProt P08684).
Sequence (P08684 whole entry): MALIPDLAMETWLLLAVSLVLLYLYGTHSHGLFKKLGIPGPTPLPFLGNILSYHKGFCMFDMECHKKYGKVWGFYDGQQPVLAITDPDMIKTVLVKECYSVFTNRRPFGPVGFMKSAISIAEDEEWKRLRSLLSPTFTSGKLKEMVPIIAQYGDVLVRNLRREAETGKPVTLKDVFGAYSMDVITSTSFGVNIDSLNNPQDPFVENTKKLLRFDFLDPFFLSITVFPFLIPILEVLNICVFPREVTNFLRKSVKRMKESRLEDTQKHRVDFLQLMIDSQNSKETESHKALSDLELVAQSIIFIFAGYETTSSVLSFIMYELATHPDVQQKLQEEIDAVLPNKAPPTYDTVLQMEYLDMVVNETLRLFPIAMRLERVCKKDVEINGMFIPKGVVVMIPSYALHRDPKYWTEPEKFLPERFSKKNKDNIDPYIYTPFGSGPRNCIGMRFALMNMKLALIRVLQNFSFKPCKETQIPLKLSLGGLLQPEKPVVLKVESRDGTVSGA
Parameter measured: AC50 (µM)

CC(=O)c1cc2ccccc2s1 [2-Acetylbenzo[b]thiophene]	24.6
N.N.O=C([O-])C1(C(=O)[O-])CCC1.[Pt+2]	31.3
Cl.FC(F)(F)c1cccc(C2=CCN(CCc3ccc4ccccc4c3)CC2)c1 [Xaliproden hydrochloride]	19.8
O=C1OC(=O)c2cc(Oc3ccc4c(c3)C(=O)OC4=O)ccc21	30.8
CCOC(=O)COc1ccc(Cl)cc1Cl	17.1
CCCCCC[C@@H](CCC)C(=O)O	31
CC(C)c1ccc2sc3ccccc3c(=O)c2c1	7.71
O=C(O)C(F)(F)C(F)(F)C(F)(F)C(F)(F)C(F)(F)F	58.1
CCCCCC=CCC1CC(=O)OC1=O (stereo not shown) [2-Octen-1-ylsuccinic anhydride]	31.9
O=C1C=CC(=O)N1c1cccc(N2C(=O)C=CC2=O)c1 [N,N'-1,3-Phenylenedimaleimide]	9.83
N#CCc1ccc(Cl)cc1Cl	13.3
CC(=O)[O-].CC(=O)[O-].CC(=O)[O-].[Cr+3] [Chromium(III) acetate]	69.6
CCN(CC)c1ccc2c(C)cc(=O)oc2c1	32.4
CC(C)(c1ccc(Oc2ccc3c(c2)C(=O)OC3=O)cc1)c1ccc(Oc2ccc3c(c2)C(=O)OC3=O)cc1	23.4
CC(C)(C)c1ccc(OP(=O)(Oc2ccccc2)Oc2ccccc2)cc1 [tert-Butylphenyl diphenyl phosphate]	8.02
CC(C)c1ccc2ncccc2c1	35

###

Each entry below carries its recorded AC50.
molecular target: human CYP1A2 (Homo sapiens, UniProt P05177); experiment: biochemical; settings: CYP1A2 AC50 (half-maximal activity concentration)
Sequence (P05177 whole entry): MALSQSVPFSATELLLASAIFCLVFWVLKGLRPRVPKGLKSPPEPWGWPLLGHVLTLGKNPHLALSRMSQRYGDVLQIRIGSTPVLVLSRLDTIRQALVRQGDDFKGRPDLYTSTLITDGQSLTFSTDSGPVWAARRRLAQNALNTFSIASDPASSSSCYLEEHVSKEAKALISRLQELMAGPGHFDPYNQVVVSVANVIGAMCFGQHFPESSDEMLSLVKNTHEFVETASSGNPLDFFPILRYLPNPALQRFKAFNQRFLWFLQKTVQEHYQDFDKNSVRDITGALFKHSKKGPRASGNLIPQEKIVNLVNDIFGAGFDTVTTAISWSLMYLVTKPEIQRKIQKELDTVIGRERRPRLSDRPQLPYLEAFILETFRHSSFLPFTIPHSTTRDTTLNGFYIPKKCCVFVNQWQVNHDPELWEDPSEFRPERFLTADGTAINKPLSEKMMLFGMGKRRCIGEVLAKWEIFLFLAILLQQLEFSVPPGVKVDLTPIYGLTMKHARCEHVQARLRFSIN
Parameter measured: AC50 (µM)

CCOC(=O)C1OC1(C)c1ccccc1 (centres unmarked) [Ethyl methylphenylglycidate]	34.6
Cc1ccccc1OP(=O)(Oc1ccccc1C)Oc1ccccc1C [Tri-o-cresyl phosphate]	32
IC(I)=C(I)I	13
O=[N+]([O-])c1ccccc1-c1ccccc1	1.66
C[C@]12CC[C@@H]3c4ccc(O)cc4CC[C@H]3[C@@H]1CC[C@@H]2O	29.1
CCOC(=O)C(C)Oc1ccc(Oc2cnc3cc(Cl)ccc3n2)cc1 (centres unmarked)	36.3
COP(=O)(OC)O/C(=C\Cl)c1cc(Cl)c(Cl)cc1Cl	2.28
C[C@]12CC[C@@H]3c4ccc(O)cc4CC[C@H]3[C@@H]1C[C@@H](O)[C@@H]2O	34.4
CN(C)C(=S)SC(=S)N(C)C [Tetramethylthiuram monosulfide]	41.9
CNC(=O)Oc1cc(C)cc(C(C)C)c1	26.9
Cc1c(C)c([N+](=O)[O-])c(C(C)(C)C)c([N+](=O)[O-])c1C	17.5
O=c1[nH]sc2ccccc12	31.7
O=C(c1ccccc1)c1ccc(O)cc1 [4-Hydroxybenzophenone]	29
O=[N+]([O-])c1ccc2c3c(cccc13)CC2	2.25
CCc1oc2ccccc2c1C(=O)c1cc(Br)c(O)c(Br)c1	28.9
CC(C)Oc1ccc2c(=O)c(-c3ccccc3)coc2c1	11.6
COC(=O)c1ccc(C(=O)OC)cc1 [Dimethyl terephthalate]	9.66
